test.description: NOVARTIS: Cytotoxicity against human hepatocellular carcinoma cell line (Huh7)
Assay type: toxicity, cell-based, Huh-7
run.parameters: Huh7 cells (hepatocellular carcinoma cell line)
value.kind: CC50

Illustrative cases are given below, each with its answer.
| compound | CC50 |
| --- | --- |
| CCCCCCCc1cc(O)c2c3c(c(=O)oc2c1)CCC(C)C3 (configuration not stated) | > 100 µM |
| Cc1cc(C)cc(Nc2cc(C)nc3nc(C)nn23)c1 | > 100 µM |
| CCN1CCN(c2cc(C)c3cc(NC(=O)C=Cc4ccc(OC)cc4)ccc3n2)CC1 | > 100 µM |

The compound Cc1ccccc1Cn1c(=N)n(CC(O)c2ccc(Cl)c(Cl)c2)c2ccccc21 (configuration not stated) showed CC50 equal to 13.3 µM

// CC50 value for `CCOC(=O)c1cnc2ccc(C)cc2c1NCCCN1CCOCC1` : > 100 µM

---

System: Plasmodium falciparum
test.description: NOVARTIS: Inhibition of Plasmodium falciparum 3D7 (drug-susceptible) proliferation in erythrocyte-based infection assay
Type: functional, organism-based
run.parameters: Plasmodium falciparum, 3D7
value.kind: EC50

Some entries whose results are on file:
| molecule | EC50 |
| --- | --- |
| COC(=O)c1c(NC(=O)c2cc3ccccc3oc2=O)sc2c1CCC(C)C2 (stereo unspecified) | > 12500 nM |
| CCCc1cc2c(=O)c(-c3cc4ccccc4o3)coc2cc1OC(C)C(=O)OCC (stereo unspecified) | > 1170 nM |
| O=C(Nc1ccc(OC(F)(F)F)cc1)c1cnn2c1NC(c1cccs1)CC2C(F)(F)F (stereo unspecified) | 492 nM |
| O=C(c1cccs1)N1CCN(c2ccc([N+](=O)[O-])c(NC3CC3)c2)CC1 | 2090 nM |
| COc1ccc(C2CC(=O)C3=C(C2)NC(C)=C(C(=O)OC2CCCC2)C3c2ccc(F)cc2)cc1OC (stereo unspecified) | 12.6 nM |
| CC1(C)N=C(N)N=C(N)N1c1ccccc1 | 174 nM |
| O=C(CCCn1c2ccccc2c(=O)c2ccccc21)NCc1ccc(F)cc1 | 1110 nM |
| CCCCCCCCCC(=O)Oc1ccccc1-c1nc2cc(C)ccn2c1NC(C)(C)CC(C)(C)C | 1010 nM |
| COc1ccc(C2CC(=O)C3=C(C2)NC(C)=C(C(=O)OC(C)C)C3c2ccccc2Br)cc1OC (stereo unspecified) | 13.7 nM |
| CN(C)CCNc1cc(-c2cccc(C(F)(F)F)c2)nc(-c2ccncc2)n1 | > 1250 nM |

Then this molecule:
EC50 measured on `O=c1c2ccccc2[nH]c2ccc(F)cc12` = 186 nM

---

test.description: NOVARTIS: Cytotoxicity against human hepatocellular carcinoma cell line (Huh7)
Format: toxicity, cell-based, Huh-7
run.parameters: Huh7 cells (hepatocellular carcinoma cell line)
Consider the following compounds and their measured CC50 readings.
Give just the numeric value; µM need not be written.

| record.smiles | value.kind | unit.descriptor | recorded.measurement |
| --- | --- | --- | --- |
| COc1ccc(OC)c(-c2ccc(C(=O)N3CCN(CC=Cc4ccccc4)CC3)c(N(C)C)n2)c1 | CC50 | µM | 32.8 |

As a next step, examine the compound that follows.
Input `CC(=O)N(C)C1=C(N2CCCC2)C(=O)c2ccccc2C1=O` . Output CC50: 15.1

---

test.description: NOVARTIS: Cytotoxicity against human hepatocellular carcinoma cell line (Huh7)
Type: toxicity, cell-based, Huh-7
run.parameters: Huh7 cells (hepatocellular carcinoma cell line)
The entries below are paired with their reported CC50.

| compound | CC50 |
| --- | --- |
| CCCCCCOc1ccc(NC(=O)c2cccs2)cc1 | > 100 µM |
| COc1ccc(Cl)cc1NC(=O)CSC1=C(C#N)C(c2ccccc2)C(C(=O)Nc2ccccc2)=C(C)N1 (stereo not drawn) | > 100 µM |

Memo: `CSc1nnc(NC(=O)C2CC2)s1` , reported CC50: > 100 µM

For record `O=C(NCCCCNc1ccnc2cc(Cl)ccc12)c1ccco1` the listed CC50 is > 13.1 µM

For this compound ( `O=C(NCCc1ccccc1)c1cnc(NCCCN2CCCC2)nc1Nc1ccccc1` ), measured CC50 is > 10 µM

So for `COc1ccc(/C=C(/C#N)C(=O)Nc2cccc3ccccc23)cc1` , the logged CC50 turned out to be > 10 µM

`COc1ccc(CN2CCC(Sc3ncccn3)CC2)cc1` has a reported CC50 of 0.702 µM

CC50 measured on O=C1C2C(C(=O)N1c1ccc(F)cc1)C1(c3ccccc3)C(=O)C2(c2ccccc2)C(c2ccccc2)=C1c1ccccc1 (stereo not drawn) = > 100 µM

Record `CO[C@H]1[C@H](C)[C@@H]([C@H]2CC[C@H]([C@@H]3CC[C@H]([C@@]4(C)O[C@]5(O[C@H](C[C@@H]6O[C@](O)([C@@H](C)C(=O)O)[C@@H](C)[C@H](O[C@H]7CC[C@H](OC)[C@@H](C)O7)[C@@]6(C)OC)C[C@@H](OC)[C@H]5C)[C@H](C)[C@H]4OC)O3)O2)O[C@](C)(O)[C@@H]1C` , field CC50: 2.42 µM

---

test.description: NOVARTIS: Cytotoxicity against human hepatocellular carcinoma cell line (Huh7)
Assay type: toxicity, cell-based, Huh-7
run.parameters: Huh7 cells (hepatocellular carcinoma cell line)
value.kind: CC50

| compound | CC50 |
| --- | --- |
| Cc1nc2c(=O)n(C)c(=O)nc-2n(C)n1 | > 10 µM |

`O=C(NC1CC1)C1CCN(c2cccc3c2C(=O)N(C2CCCCCCC2)C3=O)CC1` has a reported CC50 of > 51.8 µM

The measured CC50 associated with `CN(C)c1cc[n+](OC(=O)N2CCCCC2)cc1` reads > 10 µM

Just so you know, measured CC50 for CCCCCCN(C(=O)c1ccc(Cl)cc1)C(CC)c1nc2ccccc2c(=O)n1-c1ccccc1OC (stereo unspecified) came out at > 10 µM

Data point: `COC(=O)C1=C(C)N/C(=C\c2cc(C)n(-c3cc(Cl)ccc3Cl)c2C)C1=O` ; CC50 = > 10 µM

Consider COc1ccc(C2(Cc3ccccc3)NC(=O)NC2=O)cc1 (stereo unspecified) . Its measured CC50 is > 10 µM

Reported CC50 ( `COc1ccc2[nH]c3c(NCCN4CCCCC4)ncnc3c2c1` ) = 28.6 µM

Memo: `CCN1C(=Cc2sc3ccc(Cl)cc3[n+]2CC)C=Cc2cc(OC)ccc21` , reported CC50: > 10 µM

Measured CC50, `CCCCC(=O)N(C)CCCNc1ccnc2cc(Cl)ccc12` : > 10 µM

CC50 reported for this compound `O=C(C[n+]1ccc(/C=N/O)cc1)NC12CC3CC(CC(C3)C1)C2` : 42.2 µM

// `CCOC(=O)c1c(C)n(Cc2ccccc2)c2c1cc(O)c1c2c(-c2ccccc2)nn1-c1ccccc1` : CC50 value = > 100 µM

---

test.description: NOVARTIS: Cytotoxicity against human hepatocellular carcinoma cell line (Huh7)
Type: toxicity, cell-based, Huh-7
run.parameters: Huh7 cells (hepatocellular carcinoma cell line)
# CC50 annotations

Example cases with answers are listed next.
| compound | value.kind | recorded.measurement |
| --- | --- | --- |
| O=S(=O)(c1ccccc1)N1CCN(CC2CNCCO2)CC1 (stereo unspecified) | CC50 | 3.22 µM |
| COC(=O)C1=CNC=C(C(=O)OC)C1c1ccc(Cl)c([N+](=O)[O-])c1 | CC50 | > 100 µM |
| CC(C)CNC(=O)c1cnc(NCCc2ccncc2)nc1NCCc1ccccc1 | CC50 | > 10 µM |
| CC12CN(Cc3ccccc3)CC(C)(CN(Cc3cccc(Br)c3)C1)C2 | CC50 | 47.2 µM |
| CC(=O)N(/C=C1/Sc2ccccc2C1=O)c1ccc(C)cc1 | CC50 | > 10 µM |
| CCCn1c(=N)c(C(=O)NC(C)c2ccccc2)cc2c(=O)n3cccc(C)c3nc21 (stereo unspecified) | CC50 | > 100 µM |
| CC1CC(=Cc2ccncc2)C(=O)C(=Cc2ccncc2)C1 (stereo unspecified) | CC50 | 7.77 µM |
| Cc1nc2ccccc2c(O)c1CC=C(Cl)Cl | CC50 | > 100 µM |
| CCOC(=O)c1c(NC(=O)CSc2nnc(CNC(=O)c3ccc(C)c(C)c3)n2C2CCCCC2)sc2c1CCC2 | CC50 | > 10 µM |
| Sc1nc2ccc3nsnc3c2[nH]1 | CC50 | > 10 µM |

The record that follows has no CC50 shown yet.
CC50 in this record for COc1ccccc1CNC(=O)CCC1N=C2c3ccccc3N=C(SCC(=O)Nc3ccc(F)cc3)N2C1=O (stereo unspecified) : > 100 µM

---

System: Plasmodium falciparum
test.description: NOVARTIS: Inhibition of Plasmodium falciparum W2 (drug-resistant) proliferation in erythrocyte-based infection assay
Assay type: functional, organism-based
run.parameters: Plasmodium falciparum, W2; read-out: EC50
The entries below are paired with their reported pEC50.
Hey, just a heads up that pEC50 is the negative log base 10 of the concentration in molar.

| record.smiles | pEC50 |
| --- | --- |
| CC(=O)c1ccc(NC(=O)CSc2nnc3c4c(-c5ccc(F)cc5)csc4ncn23)cc1 | 7.62 |
| CC(C)(C)c1ccc(/C=C/C(=O)NCc2ccco2)cc1 | 6.19 |

Please turn your attention to the following entry.
Note to self: pEC50 recorded for `COC(=O)c1ccc(C=NNc2cc(C)nc3ccc(OC)cc23)cc1` was 6.27

# credit: ChEMBL document CHEMBL1156829
